We begin with a simple list: items and their reported hAmylin-R funct. EC50 (pM).
Biological target: T1, human amylin 3(a) receptor (human calcitonin receptor co-expressed with RAMP-3) (human, UniProt P30988 25-474; O60896 24-148, limits assumed)
T1 sequence (looked up) 1: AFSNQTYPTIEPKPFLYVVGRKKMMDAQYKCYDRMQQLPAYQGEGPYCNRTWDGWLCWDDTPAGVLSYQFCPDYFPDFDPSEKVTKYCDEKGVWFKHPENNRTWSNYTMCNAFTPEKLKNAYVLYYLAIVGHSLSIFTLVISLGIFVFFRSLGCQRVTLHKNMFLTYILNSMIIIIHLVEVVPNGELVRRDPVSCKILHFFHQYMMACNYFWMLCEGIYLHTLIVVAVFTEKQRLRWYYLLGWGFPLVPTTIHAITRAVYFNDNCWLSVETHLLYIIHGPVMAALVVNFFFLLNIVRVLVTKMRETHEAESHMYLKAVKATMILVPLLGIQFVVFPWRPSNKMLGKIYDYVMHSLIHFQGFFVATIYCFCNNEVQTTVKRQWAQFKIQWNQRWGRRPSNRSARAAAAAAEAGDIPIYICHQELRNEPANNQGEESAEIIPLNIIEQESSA
T1 sequence (looked up) 2: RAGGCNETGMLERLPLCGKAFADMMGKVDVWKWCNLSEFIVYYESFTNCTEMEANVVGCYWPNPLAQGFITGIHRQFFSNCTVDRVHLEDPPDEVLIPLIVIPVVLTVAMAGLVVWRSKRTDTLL
Test: cell-based or functional assay
Numbered stars: 1 amine (or outer) side, 2 acyl side, 3 side chain; on linkers, the order of the positions; unused ones are H or OH. Side chains are listed from the residue outwards. Ends that are not written are not given here. * marks the point of attachment. C20 diacid = O=C(O)CCCCCCCCCCCCCCCCCCC(=O)*; C18 diacid = O=C(O)CCCCCCCCCCCCCCCCC(=O)*; γGlu = O=C(O)[C@H](CCC(=O)[*:2])N[*:1]; C14 diacid = O=C(O)CCCCCCCCCCCCC(=O)*; AEEA = NCCOCCOCC(=O)O
MEASURED METRIC: hAmylin-R funct. EC50 (pM)

BINDER	MEASURED METRIC	VALUE MEASURED
{C20 diacid-γGlu-AEEA-AEEA-AEEA-AEEA}-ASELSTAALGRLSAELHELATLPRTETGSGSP-NH2 [[N-terminal(C20 diacid-gGlu-4xOEG), des1, 30S, 31G]mimylin]	hAmylin-R funct. EC50 (pM)	24 pM
{C18 diacid}-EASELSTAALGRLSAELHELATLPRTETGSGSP-NH2 [[N-terminal(C18 diacid), 30S, 31G]mimylin]	hAmylin-R funct. EC50 (pM)	9 pM
ASGLSTAVLGRLSQELHELQTYPRTETGSGTY (ends and bridges not checked) [[des1, 4G, 9V, 15Q, 21Q, 23Y, 30S, 31G, 32T, 33Y]mimylin]	hAmylin-R funct. EC50 (pM)	8 pM
{C20 diacid-γGlu-AEEA-AEEA-AEEA}-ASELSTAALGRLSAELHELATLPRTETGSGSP-NH2 [[N-terminal(C20 diacid-gGlu-3xOEG), des1, 30S, 31G]mimylin]	hAmylin-R funct. EC50 (pM)	18 pM
Ac-ASELSTAALGRLSAK([γGlu-C20 diacid])LHELATLPRTETGSGSP-NH2 [[N-terminal(acetyl), des1, 16K(C20 diacid-gGlu), 30S, 31G]mimylin]	hAmylin-R funct. EC50 (pM)	21 pM
EASELSTAALGRLSAELHELATLPRTETGPESP-NH2 [mimylin]	hAmylin-R funct. EC50 (pM)	3 pM
{C20 diacid-γGlu-AEEA}-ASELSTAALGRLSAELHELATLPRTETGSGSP-NH2 [[N-terminal(C20 diacid-gGlu-OEG), des1, 30S, 31G]mimylin]	hAmylin-R funct. EC50 (pM)	27 pM
LSGLSTAVLGRLSQELHELQTYPRTETGSQTY-NH2 [[des1, 2L, 4G, 9V, 15Q, 21Q, 23Y, 30S, 31Q, 32T, 33Y]mimylin]	hAmylin-R funct. EC50 (pM)	11 pM
{C14 diacid}-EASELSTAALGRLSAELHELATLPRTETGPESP-NH2 [[N-terminal(C14 diacid)]mimylin]	hAmylin-R funct. EC50 (pM)	6 pM
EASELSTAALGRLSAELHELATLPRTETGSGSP-NH2 [[30S, 31G]mimylin]	hAmylin-R funct. EC50 (pM)	5 pM
{C20 diacid-γGlu}-ASELSTAALGHLSAELHELATLPRTETGSGSP-NH2 [[N-terminal(C20 diacid-gGlu), des1, 12H, 30S, 31G]mimylin]	hAmylin-R funct. EC50 (pM)	17 pM
